Provenance of the data: ChEMBL document CHEMBL1123302

Measured Change in amplitude response by item
- TEST SYSTEM: Substance-P receptor (Rattus norvegicus) (UniProt P14600)
- Sequence (P14600 whole entry, looked up): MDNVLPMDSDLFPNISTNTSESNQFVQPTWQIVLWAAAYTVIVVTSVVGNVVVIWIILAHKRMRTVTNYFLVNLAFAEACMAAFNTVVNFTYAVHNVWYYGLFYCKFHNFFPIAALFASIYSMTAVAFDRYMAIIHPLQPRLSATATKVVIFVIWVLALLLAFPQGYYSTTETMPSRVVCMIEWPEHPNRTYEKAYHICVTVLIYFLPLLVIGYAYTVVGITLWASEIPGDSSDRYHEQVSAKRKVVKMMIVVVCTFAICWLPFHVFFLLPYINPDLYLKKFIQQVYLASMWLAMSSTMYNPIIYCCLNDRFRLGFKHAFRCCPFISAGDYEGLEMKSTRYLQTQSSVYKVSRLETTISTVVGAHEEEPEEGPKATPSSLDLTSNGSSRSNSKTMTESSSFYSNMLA
- METHOD DESCRIPTION: Antagonistic activity against Substance P receptor in rat spinal cord at concentration of 10 uM.
ASSAY READOUT: Change in amplitude response (%)

COMPOUND	UNIT NAME	ENDPOINT RESULT
COC(=O)[C@@H](CCSC)NC(=O)[C@H](CC(C)C)NC(=O)CNC(=O)[C@@H](Cc1c[nH]c2ccccc12)NC(=O)[C@@H](Cc1c[nH]c2ccccc12)NC(=O)[C@H](CCC(N)=O)NC(=O)[C@H](CCC(N)=O)NC(=O)[C@@H]1CCCN1C(=O)[C@H](CCCCNC(=O)OCc1ccccc1)NC(=O)[C@@H]1CCCN1C(=O)[C@H](CCCN=C(N)N)NC(=O)OCc1ccccc1	%	19
COC(=O)[C@H](CCSC)NC(=O)[C@H](CC(C)C)NC(=O)[C@@H](Cc1c[nH]c2ccccc12)NC(=O)[C@H](Cc1ccccc1)NC(=O)[C@@H](Cc1ccccc1)NC(=O)[C@H](CCCCN)NC(=O)[C@H](CC(N)=O)NC(=O)C1CCCN1C(=O)[C@H](CCCCN)NC(=O)C1CCCN1C(=O)[C@@H](N)CCCN=C(N)N (stereo in doubt)	%	9
COC(=O)[C@H](CCSC)NC(=O)[C@H](CC(C)C)NC(=O)[C@@H](Cc1c[nH]c2ccccc12)NC(=O)[C@H](Cc1ccccc1)NC(=O)[C@@H](Cc1ccccc1)NC(=O)[C@H](CCCN=C(N)N)NC(=O)[C@H](CC(N)=O)NC(=O)OC(C)(C)C	%	15
COC(=O)[C@H](CCSC)NC(=O)[C@H](CC(C)C)NC(=O)[C@@H](Cc1c[nH]c2ccccc12)NC(=O)[C@H](Cc1ccccc1)NC(=O)[C@@H](Cc1ccccc1)NC(=O)[C@H](CCCN=C(N)N)NC(=O)[C@H](CC(N)=O)NC(=O)C1CCCN1C(=O)[C@H](CCCCNC(=O)OCc1ccccc1)NC(=O)C1CCCN1C(=O)[C@H](CCCN=C(N)N)NC(=O)OCc1ccccc1 (stereo in doubt)	%	3

---

- TEST SYSTEM: Metabotropic glutamate receptor 3 (Rattus norvegicus) (UniProt P31422)
- Sequence (P31422 23-879 limits assumed): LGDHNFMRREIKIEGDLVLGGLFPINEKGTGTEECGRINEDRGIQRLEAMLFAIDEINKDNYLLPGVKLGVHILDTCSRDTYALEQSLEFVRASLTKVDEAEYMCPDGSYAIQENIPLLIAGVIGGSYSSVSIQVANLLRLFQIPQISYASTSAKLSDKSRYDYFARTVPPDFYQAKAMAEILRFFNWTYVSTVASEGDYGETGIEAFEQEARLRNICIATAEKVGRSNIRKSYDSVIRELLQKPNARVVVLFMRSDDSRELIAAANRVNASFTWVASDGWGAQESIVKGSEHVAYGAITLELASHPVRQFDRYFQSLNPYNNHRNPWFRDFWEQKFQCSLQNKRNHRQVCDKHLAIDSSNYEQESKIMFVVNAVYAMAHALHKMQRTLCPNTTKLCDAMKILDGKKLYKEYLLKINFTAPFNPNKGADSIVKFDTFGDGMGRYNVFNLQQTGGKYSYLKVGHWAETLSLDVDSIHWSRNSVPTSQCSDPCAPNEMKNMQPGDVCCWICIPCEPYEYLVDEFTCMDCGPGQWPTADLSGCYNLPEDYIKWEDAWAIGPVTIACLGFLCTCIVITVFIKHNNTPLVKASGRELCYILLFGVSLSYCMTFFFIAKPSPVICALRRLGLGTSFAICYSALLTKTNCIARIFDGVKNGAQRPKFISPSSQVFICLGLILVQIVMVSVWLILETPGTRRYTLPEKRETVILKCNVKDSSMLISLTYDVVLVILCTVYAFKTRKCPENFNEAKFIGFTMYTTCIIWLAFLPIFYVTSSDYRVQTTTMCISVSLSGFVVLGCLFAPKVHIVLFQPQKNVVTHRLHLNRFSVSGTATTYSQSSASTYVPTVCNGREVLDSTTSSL
- METHOD DESCRIPTION: Antagonistic activity against Glutamate receptor in rat spinal cord at concentration of 50 uM.
- Type: functional, tissue-based
The entries below are paired with their reported Change in amplitude response.

MOLECULE	UNIT NAME	Change in amplitude response
COC(=O)[C@H](CCSC)NC(=O)[C@H](CC(C)C)NC(=O)[C@@H](Cc1c[nH]c2ccccc12)NC(=O)[C@H](Cc1ccccc1)NC(=O)[C@@H](Cc1ccccc1)NC(=O)[C@H](CCCN=C(N)N)NC(=O)[C@H](CC(N)=O)NC(=O)OC(C)(C)C	%	11
COC(=O)[C@@H](CCSC)NC(=O)[C@H](CC(C)C)NC(=O)CN(C)C(=O)[C@H](Cc1ccccc1)NC(=O)[C@@H](Cc1ccccc1)NC(=O)[C@H](CCC(N)=O)NC(=O)[C@H](CCC(N)=O)NC(=O)C1CCCN1C(=O)[C@H](CCCCNC(=O)OCc1ccccc1)NC(=O)C1CCCN1C(=O)[C@H](CCCN=C(N)N)NC(=O)OCc1ccccc1 (stereo in doubt)	%	-36
COC(=O)[C@@H](CCSC)NC(=O)[C@H](CC(C)C)SCCNC(=O)[C@H](Cc1ccccc1)NC(=O)[C@@H](Cc1ccccc1)NC(=O)[C@H](CCC(N)=O)NC(=O)[C@H](CCC(N)=O)NC(=O)C1CCCN1C(=O)OC(C)(C)C (stereo in doubt)	%	-43
COC(=O)[C@@H](CCSC)NC(=O)C(CC(C)C)SCCNC(=O)[C@H](Cc1ccccc1)NC(=O)[C@@H](Cc1ccccc1)NC(=O)[C@H](CCC(N)=O)NC(=O)[C@H](CCC(N)=O)NC(=O)C1CCCN1C(=O)OC(C)(C)C (stereo in doubt)	%	-50
COC(=O)[C@@H](CCSC)NC(=O)[C@H](CC(C)C)NC(=O)CN(C)C(=O)[C@H](Cc1ccccc1)NC(=O)[C@@H](Cc1ccccc1)NC(=O)[C@H](CCC(N)=O)NC(=O)[C@H](CCC(N)=O)NC(=O)C1CCCN1C(=O)OC(C)(C)C (stereo in doubt)	%	-4
COC(=O)[C@@H](CCSC)NC(=O)[C@H](CC(C)C)SCCNC(=O)[C@@H](Cc1ccccc1)NC(=O)[C@H](Cc1ccccc1)NC(=O)[C@H](CCC(N)=O)NC(=O)[C@H](CCC(N)=O)NC(=O)[C@H]1CCCN1C(=O)[C@H](CCCCNC(=O)OCc1ccccc1)NC(=O)[C@H]1CCCN1C(=O)[C@H](CCCN=C(N)N)NC(=O)OCc1ccccc1	%	-5
